FYI, the data here is from patent US20240117038A1.

# MEASURED_ON: T1, human CX3CR1 (human, UniProt P49238 1-355)
# T1 construct: Overexpressed on CHO K1, Ba/F3 or HEK293T cells; also called huCX3CR1; hCX3CR1
# T1 sequence: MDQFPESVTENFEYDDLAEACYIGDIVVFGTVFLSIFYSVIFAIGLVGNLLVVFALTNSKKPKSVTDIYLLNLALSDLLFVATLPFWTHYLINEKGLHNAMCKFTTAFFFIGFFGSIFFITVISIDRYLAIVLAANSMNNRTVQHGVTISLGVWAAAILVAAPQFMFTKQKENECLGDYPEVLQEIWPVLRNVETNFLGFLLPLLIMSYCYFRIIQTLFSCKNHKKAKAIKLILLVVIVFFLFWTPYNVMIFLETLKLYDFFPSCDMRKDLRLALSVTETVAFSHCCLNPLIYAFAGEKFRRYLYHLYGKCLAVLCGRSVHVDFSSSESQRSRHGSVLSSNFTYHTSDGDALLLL
# RUN_DESCRIPTION: flow cytometry on CHO K1 huCX3CR1 cells, 30 uM HSA
MEASURED_METRIC: top

* A041600041 (VHH, Trivalent ISVD construct (two anti-CX3CR1 ISVDs, one anti-albumin ISVD), C-terminal alanine included in the entry; also called 54A12_SO (E1D)-9GS-66B02_SO-9GS-ALB23002-A) DVQLVESGGGSVQPGGSLRLSCAASGSIFSSTAMAWYRQAPGKQRDLVAVISTVGITKYADSVKGRFTISRDNAKNTVYLQMNSLRPEDTALYYCTSDARRGWDTRYWGQGTLVTVSSGGGGSGGGSEVQLVESGGGSVQPGGSLRLSCAASGSIFSSTAMAWYRQAPGKRRDLVAAINTVGVTKYADSVKGRFTISRDNAKNTVYLQMNSLRPEDTALYYCTSDPRRGWDTRYWGQGTLVTVSSGGGGSGGGSEVQLVESGGGVVQPGGSLRLSCAASGFTFRSFGMSWVRQAPGKGPEWVSSISGSGSDTLYADSVKGRFTISRDNSKNTLYLQMNSLRPEDTALYYCTIGGSLSRSSQGTLVTVSSA | 41800
